biological target: Transient receptor potential cation channel subfamily M member 4 (Homo sapiens, UniProt Q8TD43); assay: Inhibition of Flag-tagged TRPM4 (unknown origin) expressed in HEK293 cells assessed as reduction in intracellular Na+ influx after 45 mins by ANG2 dye-based fluorescence assay; type: cell-based
Sequence (Q8TD43 whole entry): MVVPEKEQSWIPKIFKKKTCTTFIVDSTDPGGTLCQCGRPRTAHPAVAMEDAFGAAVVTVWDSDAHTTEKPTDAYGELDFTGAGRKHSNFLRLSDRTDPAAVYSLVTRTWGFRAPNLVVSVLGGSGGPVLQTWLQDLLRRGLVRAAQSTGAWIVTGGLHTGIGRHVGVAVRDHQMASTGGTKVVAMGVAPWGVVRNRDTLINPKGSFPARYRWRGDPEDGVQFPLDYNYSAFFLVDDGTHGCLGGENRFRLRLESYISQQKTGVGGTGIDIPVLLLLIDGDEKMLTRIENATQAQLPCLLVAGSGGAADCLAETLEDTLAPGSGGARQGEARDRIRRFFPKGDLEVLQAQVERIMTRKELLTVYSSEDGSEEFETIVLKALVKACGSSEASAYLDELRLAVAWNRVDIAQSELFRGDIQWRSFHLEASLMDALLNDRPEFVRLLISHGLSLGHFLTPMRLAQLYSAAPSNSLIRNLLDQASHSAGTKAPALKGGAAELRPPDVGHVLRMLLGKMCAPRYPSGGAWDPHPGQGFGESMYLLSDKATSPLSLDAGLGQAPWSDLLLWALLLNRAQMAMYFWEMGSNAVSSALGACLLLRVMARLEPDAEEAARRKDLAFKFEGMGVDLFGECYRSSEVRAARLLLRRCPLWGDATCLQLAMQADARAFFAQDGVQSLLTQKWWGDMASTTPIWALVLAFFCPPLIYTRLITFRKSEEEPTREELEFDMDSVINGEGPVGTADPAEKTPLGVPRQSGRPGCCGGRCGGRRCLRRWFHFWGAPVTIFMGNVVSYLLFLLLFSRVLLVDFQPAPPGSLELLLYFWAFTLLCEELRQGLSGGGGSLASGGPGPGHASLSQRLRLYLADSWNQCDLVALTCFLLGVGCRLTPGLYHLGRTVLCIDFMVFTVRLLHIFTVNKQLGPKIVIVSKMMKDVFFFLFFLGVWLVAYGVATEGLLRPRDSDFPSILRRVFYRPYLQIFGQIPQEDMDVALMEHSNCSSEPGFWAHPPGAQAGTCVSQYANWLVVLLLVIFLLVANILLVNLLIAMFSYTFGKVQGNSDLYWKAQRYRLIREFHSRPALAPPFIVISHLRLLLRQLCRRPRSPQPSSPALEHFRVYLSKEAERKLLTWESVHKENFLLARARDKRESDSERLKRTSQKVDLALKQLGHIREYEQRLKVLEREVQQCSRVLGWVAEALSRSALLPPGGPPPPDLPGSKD
The entries below come with measured IC50 values attached.
Note: unit µM is implicit; provide only the numeric part.

Here is how some compounds turned out for IC50.
N#Cc1ccc(C(=O)O)c(NC(=O)COc2ccccc2Cl)c1 | 3.6
Cc1cccc(NC(=O)COc2ccccc2Cl)c1C(=O)O | 1.3
O=C(COc1ccccc1Cl)Nc1cc(Cl)ccc1C(=O)NS(=O)(=O)C1CC1 | 2.8

O=C(COc1ccccc1Cl)Nc1cc(-c2nccs2)ccc1C(=O)O has a reported IC50 of 4.7

O=C(COc1ccccc1Cl)Nc1cc(-c2ccsc2)ccc1C(=O)O has a reported IC50 of 5.9

O=C(COc1ccccc1Cl)Nc1cc(-c2ncco2)ccc1C(=O)O has a reported IC50 of 4.9

====

target: Transient receptor potential cation channel subfamily M member 4 (Homo sapiens, UniProt Q8TD43); assay: Inhibition of Flag-tagged TRPM4 (unknown origin) expressed in HEK293 cells assessed as reduction in intracellular Na+ influx after 45 mins by ANG2 dye-based fluorescence assay; format: cell-based; conditions: hek293
recordedEndpoint: IC50 (nM)
Note: unit nM is implicit; provide only the numeric part.

Cc1cc(Cl)ccc1OC(C)C(=O)Nc1cc(Cl)ccc1C(=O)O (stereo unspecified) has a reported IC50 of 1600
